- study system: D(3) dopamine receptor (Homo sapiens, UniProt P35462)
- Sequence (P35462 whole entry): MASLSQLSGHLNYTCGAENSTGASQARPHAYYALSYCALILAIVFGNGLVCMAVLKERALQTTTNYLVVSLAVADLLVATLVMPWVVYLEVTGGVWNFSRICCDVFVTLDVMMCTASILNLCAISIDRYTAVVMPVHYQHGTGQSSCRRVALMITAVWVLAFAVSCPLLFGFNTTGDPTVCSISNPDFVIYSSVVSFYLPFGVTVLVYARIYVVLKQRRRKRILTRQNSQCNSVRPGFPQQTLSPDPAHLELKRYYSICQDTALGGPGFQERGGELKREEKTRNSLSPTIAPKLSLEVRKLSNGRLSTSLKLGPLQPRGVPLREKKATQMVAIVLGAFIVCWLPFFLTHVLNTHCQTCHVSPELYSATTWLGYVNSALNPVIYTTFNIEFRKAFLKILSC
- test protocol: Displacement of [3H]spiperone from human dopamine D3 receptor expressed in human HEK293 cells
- Type: cell-based
pKi: −log10 of the molar value.
assay readout: pKi

[I] CN1CCc2ccccc2Cc2[nH]c3ccccc3c2C[C@H]1CO
[II] CN1CCc2ccccc2Cc2[nH]c3ccccc3c2C[C@@H]1CO
Among I and II , whose measured pKi is the smaller figure? Which one? Tell me its label.
I
(I: 5.33, II: 6.17)

====

As a worked illustration, we turn to pKi data collected for UniProt:P21918.
Sequence (P21918 whole entry): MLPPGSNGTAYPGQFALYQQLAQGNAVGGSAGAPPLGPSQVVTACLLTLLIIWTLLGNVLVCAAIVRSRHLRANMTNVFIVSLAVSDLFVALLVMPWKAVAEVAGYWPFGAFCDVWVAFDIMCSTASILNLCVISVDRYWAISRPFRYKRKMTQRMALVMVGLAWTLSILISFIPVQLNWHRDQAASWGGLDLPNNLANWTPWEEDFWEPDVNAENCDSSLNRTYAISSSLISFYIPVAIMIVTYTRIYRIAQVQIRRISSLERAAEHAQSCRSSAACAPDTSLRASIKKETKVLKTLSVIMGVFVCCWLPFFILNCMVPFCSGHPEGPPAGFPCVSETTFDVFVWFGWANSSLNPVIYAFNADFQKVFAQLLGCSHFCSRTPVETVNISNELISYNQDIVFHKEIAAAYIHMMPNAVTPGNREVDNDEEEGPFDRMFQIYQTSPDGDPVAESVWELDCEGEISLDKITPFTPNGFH
pKi: −log10 of the molar value.
assay readout: pKi

[I] C[C@H]1Cc2c([nH]c3ccccc23)Cc2ccccc2CCN1C
[II] C[C@@H]1Cc2c([nH]c3ccccc23)Cc2ccccc2CCN1C
[III] CN1CCc2ccccc2Cc2[nH]c3ccccc3c2CC1C(=O)O (racemic)
Rank the 3 molecules shown above by pKi, smallest number first. Output the labels ranked as instructed.
III, II, I
(III: 6.18, II: 6.41, I: 8.36)

====

- study system: D(4) dopamine receptor (Homo sapiens, UniProt P21917)
- Sequence (P21917 whole entry): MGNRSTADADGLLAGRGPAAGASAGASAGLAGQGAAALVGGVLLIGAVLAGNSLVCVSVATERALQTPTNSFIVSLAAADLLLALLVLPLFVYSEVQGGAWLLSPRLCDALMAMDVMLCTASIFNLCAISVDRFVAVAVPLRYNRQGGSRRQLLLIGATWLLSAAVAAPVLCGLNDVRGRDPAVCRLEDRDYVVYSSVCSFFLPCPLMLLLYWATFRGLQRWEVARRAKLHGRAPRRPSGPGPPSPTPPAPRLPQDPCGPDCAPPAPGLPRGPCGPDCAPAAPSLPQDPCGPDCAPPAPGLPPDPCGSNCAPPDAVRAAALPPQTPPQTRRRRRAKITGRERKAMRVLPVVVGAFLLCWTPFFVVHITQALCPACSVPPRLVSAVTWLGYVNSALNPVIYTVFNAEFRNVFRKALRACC
pKi: −log10 of the molar value.
assay readout: pKi

[P] CN1CCc2ccccc2Cc2[nH]c3ccccc3c2C[C@@H]1CO
[Q] CN1CCc2ccccc2Cc2[nH]c3ccccc3c2C[C@H]1CO
[R] C[C@H]1Cc2c([nH]c3ccccc23)Cc2ccccc2CCN1C
Please list the entries, largest pKi first. Give the order by naming the labels one after another as requested.
R, P, Q
(R: 7.19, P: 6.39, Q: 5.31)
